# Substrate: O=S(O)(O)=S
# experiment-description: purified protein
# Type: biochemical, Allochromatium vinosum
# condition-description: 1 mM potassium ferricyanide as electron acceptor, 100 mM ammonium acetate pH 4.25, 24 °C
value-kind: Km (µM)
Only the number, expressed in µM, is required.

## Input Record request: Km value, item TsdA (thiosulfate dehydrogenase) (Allochromatium vinosum DSM 180) (protein, native signal peptide (removed on export), C-terminal strep(II) tag kept; E. coli Lemo56(DE3) with pEC86; two c-type hemes; 28,228 Da by ESI-MS; 234 residues modeled) EEPPTVALTVPAAALLPDGALGESIVRGRRYLSDTPAQLPDFVGNGLACRHCHPGRDGEVGTEANAAPFVGVVGRFPQYSARHGRLITLEQRIGDCFERSLNGRALALDHPALIDMLAYMSWLSQGVPVGAVVAGHGIPTLTLEREPDGVHGEALYQARCLACHGADGSGTLDADGRYLFPPLWGPRSFNTGAGMNRQATAAGFIKHKMPLGADDSLSDEEAWDVAGFVLTHPRPLFQEPTGD
## Output 2200
